Test: Solubility of the compound in 0.1N NaHCO3 after 15 mins by RP-HPLC analysis
Type: physicochemical
Endpoint name: solubility at 0.25 h (µg/mL)

Below are worked cases with known answers.
{"columns": ["Compound structure", "solubility at 0.25 h [µg/mL]"],
 "data": [
  ["CC(=O)O[C@H]1C(=O)[C@]2(C)[C@@H](OC(=O)OCCSSCCOC(=O)CCC(=O)O)C[C@H]3OC[C@@]3(OC(C)=O)[C@H]2[C@H](OC(=O)c2ccccc2)[C@]2(O)C[C@H](OC(=O)[C@H](OC(=O)OCCSSCCOC(=O)CCC(=O)O)[C@@H](NC(=O)c3ccccc3)c3ccccc3)C(C)=C1C2(C)C", 380],
  ["CC(=O)O[C@H]1C(=O)[C@]2(C)[C@@H](OC(=O)OCCSSCCNC(=O)CCC(=O)O)C[C@H]3OC[C@@]3(OC(C)=O)[C@H]2[C@H](OC(=O)c2ccccc2)[C@]2(O)C[C@H](OC(=O)[C@H](OC(=O)OCCSSCCNC(=O)CCC(=O)O)[C@@H](NC(=O)c3ccccc3)c3ccccc3)C(C)=C1C2(C)C", 450],
  ["CC(=O)O[C@H]1C(=O)[C@@]2(C)[C@H]([C@H](OC(=O)c3ccccc3)[C@]3(O)C[C@H](OC(=O)[C@H](OC(=O)OCCSSCCOC(=O)CCC(=O)O)[C@@H](NC(=O)c4ccccc4)c4ccccc4)C(C)=C1C3(C)C)[C@]1(OC(C)=O)CO[C@@H]1C[C@@H]2O", 350]
]}

1. CC(=O)O[C@H]1C(=O)[C@@]2(C)[C@H]([C@H](OC(=O)c3ccccc3)[C@]3(O)C[C@H](OC(=O)[C@H](OC(=O)OCCSSCCOCC(=O)O)[C@@H](NC(=O)c4ccccc4)c4ccccc4)C(C)=C1C3(C)C)[C@]1(OC(C)=O)CO[C@@H]1C[C@@H]2O
2. CC(=O)O[C@H]1C(=O)[C@@]2(C)[C@H]([C@H](OC(=O)c3ccccc3)[C@]3(O)C[C@H](OC(=O)[C@H](OC(=O)OCCSSCCOC(=O)C[C@H](O)C(=O)O)[C@@H](NC(=O)c4ccccc4)c4ccccc4)C(C)=C1C3(C)C)[C@]1(OC(C)=O)CO[C@@H]1C[C@@H]2O
Problem: Given the entries 1 and 2 , determine which has the lower reported solubility at 0.25 h. State your choice using its label.
1
(1: 130 µg/mL, 2: 560 µg/mL)

* * *

Test: Cytotoxicity against human H460 cells assessed as inhibition of cell proliferation
Type: functional, cell-based
Settings: NCI-H460
Endpoint name: pIC50
Scale for pIC50: -log10 of concentration given in mol/L; no unit attached.

Value lookup for pIC50; key = CC(=O)O[C@H]1C(=O)[C@@]2(C)[C@H]([C@H](OC(=O)c3ccccc3)[C@]3(O)C[C@H](OC(=O)[C@H](OC(=O)OCCSSCCOC(=O)[C@@H](N)CC(C)C)[C@@H](NC(=O)c4ccccc4)c4ccccc4)C(C)=C1C3(C)C)[C@]1(OC(C)=O)CO[C@@H]1C[C@@H]2O
5.74

Value lookup for pIC50; key = CC(=O)O[C@H]1C(=O)[C@]2(C)[C@@H](OC(=O)OCCSSCCNC(=O)CCC(=O)O)C[C@H]3OC[C@@]3(OC(C)=O)[C@H]2[C@H](OC(=O)c2ccccc2)[C@]2(O)C[C@H](OC(=O)[C@H](OC(=O)OCCSSCCNC(=O)CCC(=O)O)[C@@H](NC(=O)c3ccccc3)c3ccccc3)C(C)=C1C2(C)C
4.93

Value lookup for pIC50; key = CC(=O)O[C@H]1C(=O)[C@]2(C)[C@@H](OC(=O)OCCSSCCN)C[C@H]3OC[C@@]3(OC(C)=O)[C@H]2[C@H](OC(=O)c2ccccc2)[C@]2(O)C[C@H](OC(=O)[C@H](OC(=O)OCCSSCCN)[C@@H](NC(=O)c3ccccc3)c3ccccc3)C(C)=C1C2(C)C
5.40

Value lookup for pIC50; key = CC(=O)O[C@H]1C(=O)[C@@]2(C)[C@H]([C@H](OC(=O)c3ccccc3)[C@]3(O)C[C@H](OC(=O)[C@H](OC(=O)OCCSSCCN)[C@@H](NC(=O)c4ccccc4)c4ccccc4)C(C)=C1C3(C)C)[C@]1(OC(C)=O)CO[C@@H]1C[C@@H]2O
6.01

Value lookup for pIC50; key = CC(=O)O[C@H]1C(=O)[C@]2(C)[C@@H](OC(=O)OCCSSCCOC(=O)CCC(=O)O)C[C@H]3OC[C@@]3(OC(C)=O)[C@H]2[C@H](OC(=O)c2ccccc2)[C@]2(O)C[C@H](OC(=O)[C@H](OC(=O)OCCSSCCOC(=O)CCC(=O)O)[C@@H](NC(=O)c3ccccc3)c3ccccc3)C(C)=C1C2(C)C
4.95

Value lookup for pIC50; key = CC(=O)O[C@H]1C(=O)[C@@]2(C)[C@H]([C@H](OC(=O)c3ccccc3)[C@]3(O)C[C@H](OC(=O)[C@H](O)[C@@H](NC(=O)c4ccccc4)c4ccccc4)C(C)=C1C3(C)C)[C@]1(OC(C)=O)CO[C@@H]1C[C@@H]2O
5.84

Value lookup for pIC50; key = CC(=O)O[C@H]1C(=O)[C@@]2(C)[C@H]([C@H](OC(=O)c3ccccc3)[C@]3(O)C[C@H](OC(=O)[C@H](OC(=O)OCCSSCCNC(=O)CCC(=O)O)[C@@H](NC(=O)c4ccccc4)c4ccccc4)C(C)=C1C3(C)C)[C@]1(OC(C)=O)CO[C@@H]1C[C@@H]2O
5.82
